Cited source: ChEMBL document CHEMBL3885861

organism: Rattus norvegicus; assay: Open TG-GATES - Regimen: Daily Repeat; assay type: toxicity, organism-based, Sprague-Dawley; design: regimen Daily Repeat, gender Male, age 6 weeks; details: in vivo, po, 1000 mg/kg, 72 h, tissue Plasma, route gavage, dose level High, time 3 day
Quantity: RALB (g/dL)
Return type: number; implicit unit g/dL.

| Compound | Endpoint Unit | Observed Measurement |
| --- | --- | --- |
| CCOc1ccc(NC(C)=O)cc1 [PHENACETIN] | g/dL | 2.7 |
| COC(=O)C1=C(C)NC(C)=C(C(=O)OC)C1c1ccccc1[N+](=O)[O-] [NIFEDIPINE] | g/dL | 2.5 |
| CNC(=C[N+](=O)[O-])NCCSCc1ccc(CN(C)C)o1 [RANITIDINE] | g/dL | 3.4 |

Qu. // query RALB value for entry CN/C(=N/CCSCc1nc[nH]c1C)NC#N [CIMETIDINE]
Ans. 3.4
